Tested on: CCRF-CEM leukemia
Assay: NCI-60 one-dose screen, 48 h (100 = growth as untreated, 0 = no growth, -100 = all killed)
Details: 10 µM unless noted
Compounds without any hit were thinned out: in the full panel of roughly 83,000, 20% have a hit. The source made the active and inactive calls. Rule for the calls: active = growth percent below 10; inactive = the rest.
Reported growth by item:

CCOc1c(C#N)c(Nc2ccc(S(N)(=O)=O)cc2)c(C#N)c2nnc(C)n12 = 104% (inactive)

Here is another molecule to look at.
-- ask Returns the measured growth for the input molecule. Input: "COc1ccc(-c2ccc3c4c(cccc24)C(=O)N(N2C(=O)c4cccc5cccc(c45)C2=O)C3=O)cc1"
-- reply 96.8% (inactive)
